Experiment Description: Bidirectional permeability across Caco-2 cell monolayers
Cond: human, Caco-2, pH 7.4, A–B Papp, matrix: pH 7.4 buffer
Papp A→B listing for selected compounds.
Readout Name: Papp A→B (×10⁻⁶ cm/s)

Compound	Relation	Quantitative Result
[H]/N=C(\N/C(=N/[H])Nc1ccc(Cl)cc1)NC(C)C	<	5
CO[C@H]1O[C@@H]2O[C@@]3(C)CC[C@H]4[C@H](C)CC[C@@H]([C@H]1C)[C@@]24OO3	=	39.1
C[C@H]1[C@H](N2CCS(=O)(=O)CC2)O[C@@H]2O[C@@]3(C)CC[C@H]4[C@H](C)CC[C@@H]1[C@@]24OO3	=	58.8
C[C@H]1[C@H](OC(=O)CCC(=O)O)O[C@@H]2O[C@@]3(C)CC[C@H]4[C@H](C)CC[C@@H]1[C@@]24OO3 [Artesunate]	=	3.4

====

B/P (whole blood to plasma partitioning ratio) listing for selected compounds.
Experiment Description: Blood to plasma partitioning
Format: in vitro ADME, human
Cond: human whole blood, 37 °C
Readout Name: B/P (whole blood to plasma partitioning ratio)

Compound	Result
CS(=O)(=O)O.FC1CCN(CCOc2ccc(C3CCC4(CC3)OOC3(OO4)C4CC5CC(C4)CC3C5)cc2)CC1 (stereo not shown)	0.51 ± 0.08
Cc1cc(Nc2ccc(C(F)(F)F)nc2)n2nc(C(C)(F)F)nc2n1	0.53 ± 0.03
O=C(NCCN1CCCC1)c1cc(-c2ccc(CN3CCOCC3)cc2)nc2ccc(F)cc12	1.3 ± 0.02
CC(C)NC(=N)NC(=N)Nc1ccc(Cl)c(Cl)c1	3.3 ± 0.38

====

Test system: Caco-2 cell monolayers
Experiment Description: Bidirectional permeability across Caco-2 cell monolayers
Cond: matrix: human plasma, corrected for fu
A–B Papp listing for selected compounds.

Compound	Tested System	A–B Papp
CC1(C)CC(O)(COc2ccc(C3CCC4(CC3)OOC3(O4)C4CC5CC(C4)CC3C5)cc2)CC(C)(C)N1 (stereo not drawn)	Caco-2 cell monolayers	> 300 10^−6 cm/s
CCN(CC)CCCNc1ccnc2cc(Cl)ccc12.Cl.Cl	Caco-2 cell monolayers	25 ± 2.3 10^−6 cm/s
CC(C)(C)NCc1cc(C(C)(C)C)cc(-c2cnc(C(F)(F)F)c(F)c2)c1O	Caco-2 cell monolayers	> 300 10^−6 cm/s

====

Experiment Description: Solubility limited absorbable dose (SLAD) calculation with predicted human jejunal Peff
Cond: Peff × tres/R; minimum 1
Source text: Predicted Peff values were obtained from a calibration plot of literature Peff values vs measured Caco-2 Papp using either buffer or plasma as the transport medium (see Results section).
Readout Name: An (absorption number)

Compound	Quantitative Result
CS(=O)(=O)c1ccc(-c2cnc(N)c(-c3ccc(C(F)(F)F)nc3)c2)cc1 [MMV048]	4.5
COc1cc(C)c2c(Oc3cccc(C(F)(F)F)c3)c(OC)cc(NC(C)CCCN)c2n1 (stereo not drawn) [Tafenoquine]	13
CC(C)(C)NCc1cc(Nc2ccnc3cc(Cl)ccc23)c2c(c1O)CCCC2 [Naphthoquine]	11
CN(C)C[c-]1cccc1CNc1ccnc2cc(Cl)ccc12.[Fe+2].c1cc[cH-]c1 (stereo not drawn) [Ferroquine]	2.7
N#Cc1cc(NC(=O)[C@H]2c3ccccc3C(=O)N(CC(F)(F)F)[C@@H]2c2cccnc2)ccc1F [SJ733]	2.2
COc1ncnc(NS(=O)(=O)c2ccc(N)cc2)c1OC [Sulfadoxine]	2.2

====

System: human plasma
Experiment Description: Plasma protein binding via ultracentrifugation (UC)
Assay type: in vitro ADME
Cond: ultracentrifugation, neat plasma

Compound	Fraction unbound, human plasma
CS(=O)(=O)O.FC1CCN(CCOc2ccc(C3CCC4(CC3)OOC3(OO4)C4CC5CC(C4)CC3C5)cc2)CC1 (stereo not drawn) [TDD-E209]	0.094 (0.011)
COc1cc(N[C@H](C)CCCN)c2nccc(C)c2c1Oc1ccc(Cl)c(Cl)c1 [NPC1161B]	0.046 (0.0090)
CN(C)C[c-]1cccc1CNc1ccnc2cc(Cl)ccc12.[Fe+2].c1cc[cH-]c1 (stereo not drawn) [Ferroquine]	0.070 (0.0080)
O=C(NCCN1CCCC1)c1cc(-c2ccc(CN3CCOCC3)cc2)nc2ccc(F)cc12 [M5717]	0.34 (0.021)
CC(C)(C)NCc1cc(Nc2ccnc3cc(Cl)ccc23)c2c(c1O)CCCC2 [Naphthoquine]	0.030 (0.0020)
COc1cc2[nH]c(C)c(-c3ccc(Oc4ccc(OC(F)(F)F)cc4)cc3)c(=O)c2cc1Cl [ELQ300]	0.011 (0.0020)

====

Experiment Description: Bidirectional permeability across Caco-2 cell monolayers
Cond: human, Caco-2, pH 7.4
Please enter Condition met where Papp B→A is greater than or equal to 20 ×10⁻⁶ cm/s, and Condition not met where it is lower.

Compound	Class Name
COc1ncnc(NS(=O)(=O)c2ccc(N)cc2)c1OC	Condition met
C[C@H]1c2cccc(O)c2C(=O)C2=C(O)[C@]3(O)C(=O)C(C(N)=O)=C(O)[C@@H](N(C)C)[C@@H]3[C@@H](O)[C@@H]21	Condition not met
C[C@H]1[C@@H](O)O[C@@H]2O[C@@]3(C)CC[C@H]4[C@H](C)CC[C@@H]1[C@@]24OO3 [Dihydroartemisinin]	Condition met
CC[C@H]1OC(=O)[C@H](C)[C@@H](O[C@H]2C[C@@](C)(OC)[C@@H](O)[C@H](C)O2)[C@H](C)[C@@H](O[C@@H]2O[C@H](C)C[C@H](N(C)C)[C@H]2O)[C@](C)(O)C[C@@H](C)CN(C)[C@H](C)[C@@H](O)[C@]1(C)O	Condition not met
COc1cc(NC(C)CCCN)c2ncccc2c1 (centres unmarked)	Condition met

====

fraction unbound at […], 1000 ng/mL listing for selected compounds.
Experiment Description: Binding in DMEM with 10% FCS via ultracentrifugation
Type: in vitro ADME, calf
Cond: bovine, DMEM with 10% FCS, pH 7.4

Compound	fraction unbound at […], 1000 ng/mL
C[C@H]1[C@H](OC(=O)CCC(=O)O)O[C@@H]2O[C@@]3(C)CC[C@H]4[C@H](C)CC[C@@H]1[C@@]24OO3 [Artesunate]	0.72
COc1cc(C)c2c(Oc3cccc(C(F)(F)F)c3)c(OC)cc(NC(C)CCCN)c2n1 (stereo not drawn)	0.038
CCc1nc(N)nc(N)c1-c1ccc(Cl)cc1	0.48

====

Experiment Description: Bidirectional permeability across Caco-2 cell monolayers
Cond: human, Caco-2

Compound	Papp B→A
C[C@H]1Cc2c([nH]c3cc(Cl)c(F)cc23)[C@@]2(N1)C(=O)Nc1ccc(Cl)cc12 [KAE609]	> 300 ×10⁻⁶ cm/s
c1cc([C@H]2CC[C@]3(CC2)OO[C@]2(O3)C3CC4CC(C3)CC2C4)ccc1OCCN1CCOCC1 [OZ439]	> 300 ×10⁻⁶ cm/s
CC(C)NCC(O)COc1cccc2ccccc12 (stereo not shown) [Propranolol]	81 to 107 ×10⁻⁶ cm/s
COC(=O)c1ccccc1-c1c2ccc(=N)cc-2oc2cc(N)ccc12 [Rhodamine 123]	9 to 31 ×10⁻⁶ cm/s

====

Experiment Description: physchem
Cond: FaSSIF
solubility listing for selected molecules.
Readout Name: solubility (µg/mL)

Molecule	Relation	Quantitative Result
COc1cc(NC(C)CCCN)c2ncccc2c1 (stereo not drawn)	>	2000
CC(C)(N)CNC(=O)C[C@H]1CC[C@]2(CC1)OO[C@]1(O2)C2CC3CC(C2)CC1C3	>	2000
CCCCN(CCCC)CCC(O)c1cc2c(Cl)cc(Cl)cc2c2cc(C(F)(F)F)ccc12 (stereo not drawn)	=	69.9
Cc1nc(Nc2ncc(N3CCN(C)[C@H](C)C3)c(Nc3cc(C)n(C)n3)n2)cc(C2CC2)c1F	=	569
Clc1ccc2c(N3CCN(CCCN4CCN(c5ccnc6cc(Cl)ccc56)CC4)CC3)ccnc2c1	=	103
N#Cc1cc(NC(=O)[C@H]2c3ccccc3C(=O)N(CC(F)(F)F)[C@@H]2c2cccnc2)ccc1F	=	101
CC1(C)c2nc(-c3ccc(F)cc3)c(Nc3ccc(F)cc3)n2CCN1C(=O)CN	=	1600
C[C@H]1c2cccc(O)c2C(=O)C2=C(O)[C@]3(O)C(=O)C(C(N)=O)=C(O)[C@@H](N(C)C)[C@@H]3[C@@H](O)[C@@H]21	>	2000
C[C@H]1[C@H](N2CCS(=O)(=O)CC2)O[C@@H]2O[C@@]3(C)CC[C@H]4[C@H](C)CC[C@@H]1[C@@]24OO3	=	115

====

Experiment Description: Solubility limited absorbable dose (SLAD) calculation with predicted human jejunal Peff
Cond: Ssi × V (500 mL) × Mp
Readout Name: SLAD (mg)

Compound	Relation	Quantitative Result
COc1ccc2nc3cc(Cl)ccc3c(Nc3cc(CN4CCCC4)c(O)c(CN4CCCC4)c3)c2n1	>	1610
Clc1ccc2c(N3CCN(CCCN4CCN(c5ccnc6cc(Cl)ccc56)CC4)CC3)ccnc2c1	=	685
CO[C@H]1O[C@@H]2O[C@@]3(C)CC[C@H]4[C@H](C)CC[C@@H]([C@H]1C)[C@@]24OO3	=	388
COc1cc(C)c2c(Oc3cccc(C(F)(F)F)c3)c(OC)cc(NC(C)CCCN)c2n1 (stereo not shown)	=	105
CC(C)(N)CNC(=O)C[C@H]1CC[C@]2(CC1)OO[C@]1(O2)C2CC3CC(C2)CC1C3	>	3240
[H]/N=C(\N/C(=N/[H])Nc1ccc(Cl)cc1)NC(C)C	>	1000
O=C1C(O)=C([C@H]2CC[C@H](c3ccc(Cl)cc3)CC2)C(=O)c2ccccc21	=	12
C[C@H]1[C@H](OC(=O)CCC(=O)O)O[C@@H]2O[C@@]3(C)CC[C@H]4[C@H](C)CC[C@@H]1[C@@]24OO3 [Artesunate]	=	845
CCCCN(CCCC)CCC(O)c1cc2c(Cl)cc(Cl)cc2c2cc(C(F)(F)F)ccc12 (stereo not shown)	=	466
C[C@H]1c2cccc(O)c2C(=O)C2=C(O)[C@]3(O)C(=O)C(C(N)=O)=C(O)[C@@H](N(C)C)[C@@H]3[C@@H](O)[C@@H]21	>	1000
